- TARGET_OR_TEST_SYSTEM: HDAC1 (Homo sapiens, UniProt Q13547)
- Sequence (Q13547 whole entry, species assumed): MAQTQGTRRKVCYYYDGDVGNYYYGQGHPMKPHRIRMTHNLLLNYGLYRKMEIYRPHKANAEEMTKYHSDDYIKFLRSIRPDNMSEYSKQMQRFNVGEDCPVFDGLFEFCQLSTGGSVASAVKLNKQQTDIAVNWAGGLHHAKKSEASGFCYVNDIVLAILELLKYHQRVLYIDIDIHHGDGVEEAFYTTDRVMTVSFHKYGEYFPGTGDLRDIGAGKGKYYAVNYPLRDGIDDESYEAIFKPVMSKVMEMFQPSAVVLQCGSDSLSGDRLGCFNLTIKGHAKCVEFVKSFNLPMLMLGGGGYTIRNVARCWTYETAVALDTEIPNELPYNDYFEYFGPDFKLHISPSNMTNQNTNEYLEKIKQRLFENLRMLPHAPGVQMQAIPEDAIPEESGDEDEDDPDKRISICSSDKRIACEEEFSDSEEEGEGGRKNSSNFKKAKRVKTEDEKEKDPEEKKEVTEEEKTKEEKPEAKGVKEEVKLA
- TEST_NAME: HDAC enzyme inhibitory assay (fluorescence), HDAC1
- Format: biochemical
QUANTITY: IC50 (nM)
Give bare numbers, in nM.

Record excerpt, results attached:
>  <COMPOUND>
CC12CSC(=N1)c1csc(n1)CNC(=O)CC(C=CCCS)OC(=O)C(Cc1ccccc1)NC2=O (centres unmarked)

>  <IC50 / nM>
0.29

$$$$
>  <COMPOUND>
CC(C)(C)OC(=O)NCCC1NC(=O)C2(C)CSC(=N2)c2csc(n2)CNC(=O)CC(C=CCCS)OC1=O (centres unmarked)

>  <IC50 / nM>
2.3

$$$$

Batch: IC50 for all items listed.
1. CC(C)(C)OC(=O)NCCCC1NC(=O)C2(C)CSC(=N2)c2csc(n2)CNC(=O)CC(C=CCCS)OC1=O (centres unmarked)
2. CC12CSC(=N1)c1csc(n1)CNC(=O)CC(C=CCCS)OC(=O)C(Cc1c[nH]cn1)NC2=O (centres unmarked)

Solution:
1. 0.96
2. 0.2

Exercise: I would be grateful if you could share the reported IC50 for CC12CSC(=N1)c1csc(n1)CNC(=O)CC(C=CCCS)OC(=O)C(CC(=O)O)NC2=O (centres unmarked) .
Solution: 39
